Test system: K-562
Test: IC50 of ATA at 72 h
Assay type: cell-based
Details: Homo sapiens, K562, K-562 leukaemia cells
Test readout: pIC50
As a rule, pIC50 stands for the negative log10 of the concentration, concentration in M.

Under K-562: pIC50 value of CC(=O)Oc1c(OC(C)=O)c2c(C)coc2c2ccc3c(c12)CCCC3(C)C ?
5.77

---

System: SK-BR-3
Assay: IC50 and LC50 of ATA at 48 h
Assay type: cell-based
Settings: Homo sapiens, SK-BR-3 breast cancer
Test readout: pIC50
pIC50 is defined as minus the log10 of a concentration measured in mol/L.

Item under review: CC(=O)Oc1c(OC(C)=O)c2c(C)coc2c2ccc3c(c12)CCCC3(C)C . Reported pIC50?
6.54

---

Tested on: BT474
Assay: Growth inhibition at 72 h by MTT assay
Conditions: Homo sapiens, BT-474, 72 h
Test readout: pIC50
// field semantics: pIC50 = negative decimal log of concentration (mol/L)

Sample CC(=O)Oc1c(OC(C)=O)c2c(C)coc2c2ccc3c(c12)CCCC3(C)C [ATA] — what was its pIC50?
6.00

---

Assay: IC50 and LC50 of ATA at 48 h
Type: cell-based
Details: human, MCF-10A cells (non-cancer breast cell line), MCF-10A non-cancer breast cell line
Test readout: CC50 at 48 h (µM)
Express the result in µM but write the number alone.

For CC(=O)Oc1c(OC(C)=O)c2c(C)coc2c2ccc3c(c12)CCCC3(C)C , what is its reported CC50 at 48 h?
16.3
